Values compiled from ChEMBL document CHEMBL2218924.

target under test: Tyrosine-protein kinase Fer (Homo sapiens) (UniProt P16591)
Sequence (P16591 whole entry, looked up): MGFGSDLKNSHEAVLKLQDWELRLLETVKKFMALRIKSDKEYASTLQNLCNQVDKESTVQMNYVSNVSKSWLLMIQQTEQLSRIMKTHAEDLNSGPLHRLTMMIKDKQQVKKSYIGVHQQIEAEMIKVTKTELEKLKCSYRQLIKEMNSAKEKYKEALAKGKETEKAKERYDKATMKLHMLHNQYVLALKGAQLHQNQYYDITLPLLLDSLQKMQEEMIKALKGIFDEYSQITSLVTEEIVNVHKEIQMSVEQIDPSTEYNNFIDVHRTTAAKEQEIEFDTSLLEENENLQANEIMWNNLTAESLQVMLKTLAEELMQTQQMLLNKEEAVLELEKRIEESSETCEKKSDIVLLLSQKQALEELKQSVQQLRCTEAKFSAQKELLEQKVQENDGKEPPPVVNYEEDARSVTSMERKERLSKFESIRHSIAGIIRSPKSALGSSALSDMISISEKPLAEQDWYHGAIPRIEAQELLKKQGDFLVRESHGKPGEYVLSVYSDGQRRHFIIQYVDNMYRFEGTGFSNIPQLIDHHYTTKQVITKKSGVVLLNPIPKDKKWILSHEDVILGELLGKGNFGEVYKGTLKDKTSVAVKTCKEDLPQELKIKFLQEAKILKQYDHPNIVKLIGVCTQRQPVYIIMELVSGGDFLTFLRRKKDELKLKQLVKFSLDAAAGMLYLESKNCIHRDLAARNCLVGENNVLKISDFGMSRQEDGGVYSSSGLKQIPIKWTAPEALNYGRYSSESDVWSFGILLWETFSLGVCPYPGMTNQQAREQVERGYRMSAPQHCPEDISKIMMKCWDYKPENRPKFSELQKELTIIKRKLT
protocol conditions: at 1 µM
For each entry below, report its residual activity value.
The response must be a number in % with no trailing unit.

Measured on Tyrosine-protein kinase Fer (Homo sapiens) (UniProt P16591), `O=Nc1c(-c2c(O)[nH]c3ccccc23)[nH]c2ccccc12` has a documented residual activity of 70

Measured on Tyrosine-protein kinase Fer (Homo sapiens) (UniProt P16591), `O=c1cc(-c2cccc3c2Sc2ccccc2S3)oc(N2CCOCC2)c1` has a documented residual activity of 115

Measured on Tyrosine-protein kinase Fer (Homo sapiens) (UniProt P16591), `Cc1nc(-c2ccccc2)c(-c2ccncc2)o1` has a documented residual activity of 101

Measured on Tyrosine-protein kinase Fer (Homo sapiens) (UniProt P16591), `CO[C@H]1[C@@H](OC)C[C@H](C)[C@@H](OC)C2=CC(=O)C=C(NC(=O)/C(C)=C/C=C/[C@H](OC)[C@@H](OC(N)=O)/C(C)=C/[C@@H]1C)C2=O` has a documented residual activity of 110

Measured on Tyrosine-protein kinase Fer (Homo sapiens) (UniProt P16591), `Oc1ccc(-c2nc(-c3ccc(F)cc3)c(-c3ccncc3)[nH]2)cc1` has a documented residual activity of 102

Measured on Tyrosine-protein kinase Fer (Homo sapiens) (UniProt P16591), `O=C1c2ccccc2-[n+]2ccc3c([nH]c4ccccc43)c21` has a documented residual activity of 92

Measured on Tyrosine-protein kinase Fer (Homo sapiens) (UniProt P16591), `COc1ccc(OC)c2c(=S)c3ccccc3[nH]c12` has a documented residual activity of 98

Measured on Tyrosine-protein kinase Fer (Homo sapiens) (UniProt P16591), `CC#CC(=O)Nc1cc2c(Nc3ccc(F)c(Cl)c3)ncnc2cn1` has a documented residual activity of 108

Measured on Tyrosine-protein kinase Fer (Homo sapiens) (UniProt P16591), `O=C1Nc2cc(Br)ccc2/C1=C1/Nc2ccccc2/C1=N\O` has a documented residual activity of 86

Measured on Tyrosine-protein kinase Fer (Homo sapiens) (UniProt P16591), `Cn1cc(/C=C2\C(=O)Nc3ccc(S(N)(=O)=O)cc32)c2ccccc21` has a documented residual activity of 35

Measured on Tyrosine-protein kinase Fer (Homo sapiens) (UniProt P16591), `Cc1ccc(NC2=CC(=O)c3sc(C)nc3C2=O)cc1` has a documented residual activity of 92

Measured on Tyrosine-protein kinase Fer (Homo sapiens) (UniProt P16591), `O=[N+]([O-])c1ccc(-c2nc(-c3ccc(F)cc3)c(-c3ccncc3)[nH]2)cc1` has a documented residual activity of 100

Measured on Tyrosine-protein kinase Fer (Homo sapiens) (UniProt P16591), `Ic1cccc(CSc2nnc(-c3ccncc3)o2)c1` has a documented residual activity of 93

Measured on Tyrosine-protein kinase Fer (Homo sapiens) (UniProt P16591), `CNc1cc2c(Nc3cccc(Br)c3)ncnc2cn1` has a documented residual activity of 105

Measured on Tyrosine-protein kinase Fer (Homo sapiens) (UniProt P16591), `COc1cc2ncnc(Nc3ccc(Oc4ccccc4)cc3)c2cc1OC` has a documented residual activity of 110

Measured on Tyrosine-protein kinase Fer (Homo sapiens) (UniProt P16591), `COc1cc2ncnc(Nc3ccc(O)c(Br)c3)c2cc1OC` has a documented residual activity of 105

Measured on Tyrosine-protein kinase Fer (Homo sapiens) (UniProt P16591), `CC(C)n1cnc2c(NCc3ccccc3)nc(NCCCO)nc21` has a documented residual activity of 102

Measured on Tyrosine-protein kinase Fer (Homo sapiens) (UniProt P16591), `O=C1NC(=O)/C(=C\c2ccc3nccnc3c2)S1` has a documented residual activity of 110

Measured on Tyrosine-protein kinase Fer (Homo sapiens) (UniProt P16591), `O=C1NC(=O)/C(=C/c2ccc3c(c2)OC(F)(F)O3)S1` has a documented residual activity of 107

Measured on Tyrosine-protein kinase Fer (Homo sapiens) (UniProt P16591), `O=C1Nc2ccc(Br)cc2/C1=C\c1cc2c([nH]1)CCCC2` has a documented residual activity of 119

Measured on Tyrosine-protein kinase Fer (Homo sapiens) (UniProt P16591), `O=C1NC(=O)c2c1c1c3ccccc3[nH]c1c1[nH]c3cc(Br)ccc3c21` has a documented residual activity of 103

Measured on Tyrosine-protein kinase Fer (Homo sapiens) (UniProt P16591), `COc1ccc(C(=O)Nc2sc3c(c2C(N)=O)CCCC3)cc1OC` has a documented residual activity of 108

Measured on Tyrosine-protein kinase Fer (Homo sapiens) (UniProt P16591), `COc1ccc(S(=O)(=O)N(CCO)c2ccccc2CN(C)C/C=C/c2ccc(Cl)cc2)cc1` has a documented residual activity of 94

Measured on Tyrosine-protein kinase Fer (Homo sapiens) (UniProt P16591), `Oc1c2ccccc2c2c3c(cccc13)N=N2` has a documented residual activity of 75

Measured on Tyrosine-protein kinase Fer (Homo sapiens) (UniProt P16591), `Oc1n[nH]c2nnc(-c3c(-c4ccccc4)nn4ccccc34)cc12` has a documented residual activity of 96

Measured on Tyrosine-protein kinase Fer (Homo sapiens) (UniProt P16591), `CN(C)CCCn1cc(C2=C(c3c[nH]c4ccccc34)C(=O)NC2=O)c2ccccc21` has a documented residual activity of 113

Measured on Tyrosine-protein kinase Fer (Homo sapiens) (UniProt P16591), `CCC(=O)Nc1ccc2ncnc(Nc3cccc(Br)c3)c2c1` has a documented residual activity of 106

Measured on Tyrosine-protein kinase Fer (Homo sapiens) (UniProt P16591), `CCOc1cc2ncnc(Nc3cccc(Br)c3)c2cc1OCC` has a documented residual activity of 116

Measured on Tyrosine-protein kinase Fer (Homo sapiens) (UniProt P16591), `Nc1nc(Nc2ccc(S(N)(=O)=O)cc2)nn1C(=S)Nc1c(F)cccc1F` has a documented residual activity of 23

Measured on Tyrosine-protein kinase Fer (Homo sapiens) (UniProt P16591), `Nc1n[nH]c2nnc(-c3c(-c4ccccc4)nn4ccccc34)cc12` has a documented residual activity of 95

Measured on Tyrosine-protein kinase Fer (Homo sapiens) (UniProt P16591), `CO[C@@H]1[C@H](N(C)C(=O)c2ccccc2)C[C@H]2O[C@]1(C)n1c3ccccc3c3c4c(c5c6ccccc6n2c5c31)C(=O)NC4` has a documented residual activity of 26

Measured on Tyrosine-protein kinase Fer (Homo sapiens) (UniProt P16591), `Cc1nc2cc3nc(-c4cccs4)cnc3cc2n1C` has a documented residual activity of 113

Measured on Tyrosine-protein kinase Fer (Homo sapiens) (UniProt P16591), O=C1Nc2ccccc2/C1=C1/Nc2ccccc2/C1=N\OCCC(O)CO (configuration not stated) has a documented residual activity of 37

Measured on Tyrosine-protein kinase Fer (Homo sapiens) (UniProt P16591), `Cc1ccc(S(=O)(=O)/C=C/C#N)cc1` has a documented residual activity of 101

Measured on Tyrosine-protein kinase Fer (Homo sapiens) (UniProt P16591), `C[C@@H](N)[C@H]1CC[C@H](C(=O)Nc2ccncc2)CC1` has a documented residual activity of 100

Measured on Tyrosine-protein kinase Fer (Homo sapiens) (UniProt P16591), `O=C(O)c1ccc2c3c1cccc3c(=O)n1c3ccccc3nc21` has a documented residual activity of 81

Measured on Tyrosine-protein kinase Fer (Homo sapiens) (UniProt P16591), `Nc1ccc2ncnc(NCCc3ccc(Oc4ccccc4)cc3)c2c1` has a documented residual activity of 93

###

target under test: SRSF protein kinase 1 (Homo sapiens)
protocol conditions: at 1 µM
measured endpoint: residual activity (%)
The response must be a number in % with no trailing unit.

Summary for this compound, `c1ccc2c(-c3ccncc3)c[nH]c2c1` : residual activity is 108

Summary for this compound, `O=C1NC(=O)/C(=C/c2ccc3c(c2)OC(F)(F)O3)S1` : residual activity is 118

Summary for this compound, `COc1ccc(OC)c2c(=S)c3ccccc3[nH]c12` : residual activity is 91

Summary for this compound, `CC#CC(=O)Nc1cc2c(Nc3ccc(F)c(Cl)c3)ncnc2cn1` : residual activity is 91

Summary for this compound, `Nc1n[nH]c2nnc(-c3c(-c4ccccc4)nn4ccccc34)cc12` : residual activity is 92

Summary for this compound, `Oc1c2ccccc2c2c3c(cccc13)N=N2` : residual activity is 98

Summary for this compound, `COc1ccc(CNc2nc(N(CCO)CCO)nc3c2ncn3C(C)C)cc1` : residual activity is 95

Summary for this compound, `N#CC(C#N)=C(N)/C(C#N)=C/c1ccc(O)cc1` : residual activity is 100

Summary for this compound, `Cc1cc(Nc2nc(-c3ccccc3)nc3ccccc23)n[nH]1` : residual activity is 73

Summary for this compound, `CNc1cc2c(Nc3cccc(Br)c3)ncnc2cn1` : residual activity is 93

Summary for this compound, `CO[C@H]1[C@@H](OC)C[C@H](C)[C@@H](OC)C2=CC(=O)C=C(NC(=O)/C(C)=C/C=C/[C@H](OC)[C@@H](OC(N)=O)/C(C)=C/[C@@H]1C)C2=O` : residual activity is 104

Summary for this compound, `O=C(Nc1cccc(Nc2cc(Nc3cccc(C(F)(F)F)c3)ncn2)c1)C1CC1` : residual activity is 96

Summary for this compound, `c1ccc(-c2n[nH]cc2-c2ccnc3ccccc23)nc1` : residual activity is 106

Summary for this compound, `COc1cc2ncnc(N3CCN(C(=O)Nc4ccc(Oc5ccccc5)cc4)CC3)c2cc1OC` : residual activity is 103

Summary for this compound, `O=c1c2ccccc2[nH]c(=S)n1CCN1CCC(=C(c2ccc(F)cc2)c2ccc(F)cc2)CC1` : residual activity is 81

Summary for this compound, `Nc1ccc2ncnc(NCCc3ccc(Oc4ccccc4)cc3)c2c1` : residual activity is 117

Summary for this compound, `CC(=O)c1ccc(N2CCOCC2)cc1O` : residual activity is 98

Summary for this compound, `NC(=O)c1ccc2[nH]c(-c3ccc(Oc4ccc(Cl)cc4)cc3)nc2c1` : residual activity is 94

Summary for this compound, `O=[N+]([O-])c1ccc(-c2nc(-c3ccc(F)cc3)c(-c3ccncc3)[nH]2)cc1` : residual activity is 109

Summary for this compound, `COc1ccc(S(=O)(=O)N(CCO)c2ccccc2CN(C)C/C=C/c2ccc(Cl)cc2)cc1` : residual activity is 117

Summary for this compound, `O=C1Nc2cc(Br)ccc2/C1=C1/Nc2ccccc2/C1=N\O` : residual activity is 98

Summary for this compound, `COc1cccc(-c2cc(=O)c3ccccc3o2)c1N` : residual activity is 104
